Sourced from ChEMBL document CHEMBL1926631

molecular target: Vascular endothelial growth factor receptor 1 (Homo sapiens, UniProt P17948); assay: Inhibition of VEGFR1 tyrosine kinase activity in VEGF-stimulated human A498 cells after 60 mins by ELISA
Sequence (P17948 whole entry): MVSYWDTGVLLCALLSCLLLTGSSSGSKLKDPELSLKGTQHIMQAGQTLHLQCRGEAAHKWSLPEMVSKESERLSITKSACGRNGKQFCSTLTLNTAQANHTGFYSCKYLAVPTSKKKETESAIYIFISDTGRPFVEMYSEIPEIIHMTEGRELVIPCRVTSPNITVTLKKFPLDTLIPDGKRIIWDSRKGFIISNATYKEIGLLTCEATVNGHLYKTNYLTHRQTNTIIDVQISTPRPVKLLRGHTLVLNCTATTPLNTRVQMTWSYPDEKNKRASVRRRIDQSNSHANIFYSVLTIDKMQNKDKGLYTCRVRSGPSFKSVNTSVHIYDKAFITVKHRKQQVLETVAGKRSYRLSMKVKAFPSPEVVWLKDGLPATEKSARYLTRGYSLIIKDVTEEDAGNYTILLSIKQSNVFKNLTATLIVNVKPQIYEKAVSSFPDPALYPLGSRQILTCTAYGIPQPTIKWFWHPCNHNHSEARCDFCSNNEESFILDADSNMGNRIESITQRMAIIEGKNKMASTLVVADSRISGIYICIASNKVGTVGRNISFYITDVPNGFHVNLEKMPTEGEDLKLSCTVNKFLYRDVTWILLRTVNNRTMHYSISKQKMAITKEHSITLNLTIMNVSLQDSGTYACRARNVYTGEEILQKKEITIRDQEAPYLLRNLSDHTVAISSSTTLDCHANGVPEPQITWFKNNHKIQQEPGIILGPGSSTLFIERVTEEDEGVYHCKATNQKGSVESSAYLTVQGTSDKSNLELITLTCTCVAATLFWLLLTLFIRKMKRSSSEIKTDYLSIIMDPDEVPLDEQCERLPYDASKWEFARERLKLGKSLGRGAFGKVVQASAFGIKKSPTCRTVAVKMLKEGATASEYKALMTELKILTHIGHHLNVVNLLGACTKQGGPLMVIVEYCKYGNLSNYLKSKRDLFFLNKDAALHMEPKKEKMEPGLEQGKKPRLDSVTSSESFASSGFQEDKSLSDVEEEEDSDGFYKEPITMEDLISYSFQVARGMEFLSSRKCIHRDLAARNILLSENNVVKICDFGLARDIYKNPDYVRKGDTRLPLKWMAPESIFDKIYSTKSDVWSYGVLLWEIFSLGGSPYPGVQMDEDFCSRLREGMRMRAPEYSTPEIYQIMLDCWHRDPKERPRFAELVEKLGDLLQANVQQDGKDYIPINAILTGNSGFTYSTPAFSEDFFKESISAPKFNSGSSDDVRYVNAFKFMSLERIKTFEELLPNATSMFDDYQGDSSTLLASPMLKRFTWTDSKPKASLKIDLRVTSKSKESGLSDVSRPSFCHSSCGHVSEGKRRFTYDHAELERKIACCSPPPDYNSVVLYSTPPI
reported-metric: IC50 (µM)

| smiles-record | reported-metric | assay-value |
| --- | --- | --- |
| COc1ccc(OC)c(Cc2cc3c(Nc4ccc(Cl)cc4)nc(N)nc3[nH]2)c1 | IC50 | 15.2 |

I: Cc1ccccc1Cc1cc2c(Nc3ccc(Cl)cc3)nc(N)nc2[nH]1
II: Cc1ccccc1Cc1cc2c(Nc3ccc(Cl)cc3F)nc(N)nc2[nH]1
III: COc1ccc(OC)c(Cc2cc3c(Nc4ccc(Cl)cc4F)nc(N)nc3[nH]2)c1
Arrange the 3 entries by IC50 so the values rise. Lab note: final answer is the ordered label list.
II, I, III
(II: 16 µM, I: 45.9 µM, III: 186 µM)

###

biological target: UniProt P09619; assay: Inhibition of PDGFRbeta tyrosine kinase activity in PDGF-BB-stimulated human SF-539 cells after 60 mins by ELISA
Sequence (P09619 whole entry): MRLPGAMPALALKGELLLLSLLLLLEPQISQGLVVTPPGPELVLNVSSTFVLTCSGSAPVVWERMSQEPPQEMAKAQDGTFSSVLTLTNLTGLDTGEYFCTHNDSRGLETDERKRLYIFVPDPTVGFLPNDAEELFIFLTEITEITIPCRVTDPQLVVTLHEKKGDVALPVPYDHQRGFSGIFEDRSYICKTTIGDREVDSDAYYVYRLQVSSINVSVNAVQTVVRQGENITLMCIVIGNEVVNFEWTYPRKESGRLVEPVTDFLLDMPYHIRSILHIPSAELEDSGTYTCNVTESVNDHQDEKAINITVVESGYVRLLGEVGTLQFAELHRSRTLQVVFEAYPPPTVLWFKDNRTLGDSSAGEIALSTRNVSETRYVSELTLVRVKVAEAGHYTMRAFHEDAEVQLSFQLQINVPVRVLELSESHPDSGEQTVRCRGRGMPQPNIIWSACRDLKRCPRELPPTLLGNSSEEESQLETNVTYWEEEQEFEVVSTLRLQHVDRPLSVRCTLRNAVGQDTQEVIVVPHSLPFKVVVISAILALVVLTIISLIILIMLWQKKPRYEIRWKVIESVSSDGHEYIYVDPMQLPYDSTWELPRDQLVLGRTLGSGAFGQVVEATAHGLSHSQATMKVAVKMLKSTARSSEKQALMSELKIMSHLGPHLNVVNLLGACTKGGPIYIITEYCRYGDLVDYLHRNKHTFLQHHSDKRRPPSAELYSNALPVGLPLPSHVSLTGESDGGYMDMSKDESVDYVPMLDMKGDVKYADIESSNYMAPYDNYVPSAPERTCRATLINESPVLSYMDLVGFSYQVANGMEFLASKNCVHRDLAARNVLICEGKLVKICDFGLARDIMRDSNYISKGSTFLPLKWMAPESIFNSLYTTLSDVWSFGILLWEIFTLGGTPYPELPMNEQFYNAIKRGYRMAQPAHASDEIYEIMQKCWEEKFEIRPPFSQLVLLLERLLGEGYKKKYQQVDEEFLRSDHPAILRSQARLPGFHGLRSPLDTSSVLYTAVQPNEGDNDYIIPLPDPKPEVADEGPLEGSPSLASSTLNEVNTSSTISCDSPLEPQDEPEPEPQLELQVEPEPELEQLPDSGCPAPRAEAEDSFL
reported-metric: IC50 (µM)

| smiles-record | IC50 [µM] |
| --- | --- |
| Nc1nc(Nc2ccc(Cl)cc2F)c2cc(Cc3cccc4ccccc34)[nH]c2n1 | 193 |

A: COc1ccc(OC)c(Cc2cc3c(Nc4ccc(Cl)cc4)nc(N)nc3[nH]2)c1
B: COc1ccc(OC)c(Cc2cc3c(Nc4ccc(Cl)cc4F)nc(N)nc3[nH]2)c1
When their IC50 values are compared, which is larger, A or B ? Choose, then provide that item's label.
B

###

biological target: Epidermal growth factor receptor (Homo sapiens); assay: Inhibition of EGFR tyrosine kinase activity in EGF-stimulated human A431 cells after 60 mins by ELISA
reported-metric: IC50 (µM)

a: Cc1ccccc1Cc1cc2c(Nc3ccc(Cl)cc3)nc(N)nc2[nH]1
b: COc1ccc(OC)c(Cc2cc3c(Nc4ccc(Cl)cc4F)nc(N)nc3[nH]2)c1
When their IC50 values are compared, which is larger, a or b ? Choose, then provide that item's label.
b

###

biological target: Epidermal growth factor receptor (Homo sapiens, UniProt P00533); assay: Inhibition of EGFR tyrosine kinase activity in EGF-stimulated human A431 cells after 60 mins by ELISA
Sequence (P00533 whole entry): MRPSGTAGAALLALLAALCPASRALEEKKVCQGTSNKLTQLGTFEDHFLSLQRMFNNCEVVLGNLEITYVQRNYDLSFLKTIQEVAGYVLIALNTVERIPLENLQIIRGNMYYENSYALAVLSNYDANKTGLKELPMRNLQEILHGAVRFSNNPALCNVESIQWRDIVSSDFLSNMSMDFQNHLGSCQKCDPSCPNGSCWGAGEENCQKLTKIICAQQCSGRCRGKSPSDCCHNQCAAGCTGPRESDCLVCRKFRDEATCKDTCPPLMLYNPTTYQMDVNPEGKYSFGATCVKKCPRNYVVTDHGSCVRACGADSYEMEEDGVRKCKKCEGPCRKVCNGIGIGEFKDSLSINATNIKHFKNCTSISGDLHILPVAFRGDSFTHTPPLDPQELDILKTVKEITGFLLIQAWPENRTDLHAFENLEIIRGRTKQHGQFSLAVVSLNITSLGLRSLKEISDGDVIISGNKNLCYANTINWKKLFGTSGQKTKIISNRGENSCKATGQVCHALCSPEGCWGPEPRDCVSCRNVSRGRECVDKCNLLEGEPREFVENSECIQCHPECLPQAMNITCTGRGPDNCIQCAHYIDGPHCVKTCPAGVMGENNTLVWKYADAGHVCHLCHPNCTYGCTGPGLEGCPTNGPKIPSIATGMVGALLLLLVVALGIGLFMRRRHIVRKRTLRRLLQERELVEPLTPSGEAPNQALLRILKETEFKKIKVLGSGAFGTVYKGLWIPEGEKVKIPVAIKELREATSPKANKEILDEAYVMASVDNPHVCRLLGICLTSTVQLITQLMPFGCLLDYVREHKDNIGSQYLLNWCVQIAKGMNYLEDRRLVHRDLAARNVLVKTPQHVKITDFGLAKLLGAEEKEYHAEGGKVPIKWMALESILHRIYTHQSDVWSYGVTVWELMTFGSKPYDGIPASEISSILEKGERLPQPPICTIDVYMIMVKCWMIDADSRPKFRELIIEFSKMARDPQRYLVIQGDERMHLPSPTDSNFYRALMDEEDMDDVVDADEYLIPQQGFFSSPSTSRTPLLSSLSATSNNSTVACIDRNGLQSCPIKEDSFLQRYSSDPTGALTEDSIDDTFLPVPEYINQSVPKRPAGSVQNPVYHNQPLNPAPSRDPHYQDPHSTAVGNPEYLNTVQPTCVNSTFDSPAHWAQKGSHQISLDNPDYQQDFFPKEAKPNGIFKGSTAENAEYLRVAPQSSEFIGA
Overview of reported IC50 across a group of compounds:

Worked set:
| smiles-record | tested-on | IC50 |
| --- | --- | --- |
| Cc1ccccc1Cc1cc2c(Nc3ccc(Cl)cc3F)nc(N)nc2[nH]1 | Epidermal growth factor receptor (Homo sapiens, UniProt P00533) | > 200 µM |
| Nc1nc(Nc2ccc(Cl)cc2F)c2cc(Cc3cccc4ccccc34)[nH]c2n1 | Epidermal growth factor receptor (Homo sapiens, UniProt P00533) | > 200 µM |

API: the following record is the query input.
The compound identified as COc1ccc(OC)c(Cc2cc3c(Nc4ccc(Cl)cc4)nc(N)nc3[nH]2)c1 registered its IC50 at > 200 µM
